# measurement-target: UniProt:Q16539
# Sequence (Q16539 whole entry, looked up): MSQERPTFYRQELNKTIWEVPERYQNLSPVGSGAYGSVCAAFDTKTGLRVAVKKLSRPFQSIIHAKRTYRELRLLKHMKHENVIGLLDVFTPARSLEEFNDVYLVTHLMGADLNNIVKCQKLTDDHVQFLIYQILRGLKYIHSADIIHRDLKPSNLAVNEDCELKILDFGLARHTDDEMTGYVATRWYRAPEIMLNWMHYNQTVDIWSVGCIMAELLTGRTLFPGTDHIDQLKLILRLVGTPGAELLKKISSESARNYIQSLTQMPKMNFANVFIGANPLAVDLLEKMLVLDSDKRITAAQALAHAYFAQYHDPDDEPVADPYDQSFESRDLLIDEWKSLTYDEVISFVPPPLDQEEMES
# method-notes: Inhibition of LPS Stimulated TNF-alpha Production in THP-1 Cells
# condition-context: thp1
pIC50: −log10 of the molar value.
# pIC50 listing for each entry below
recorded-metric: pIC50

{"smiles": "Cc1cc(C)cc(-c2nc(N)sc2-c2ccnc(NC(=O)c3ccccc3)c2)c1", "recorded-measurement": 7.70}
{"smiles": "CCc1nc(-c2cccc(Cl)c2)c(-c2ccnc(NC3CCCCC3)c2)s1", "recorded-measurement": 7.26}
{"smiles": "CCC(=O)Nc1cc(-c2sc(-c3ccc(S(C)(=O)=O)cc3)nc2-c2cccc(Cl)c2)ccn1", "recorded-measurement": 7.68}
{"smiles": "CNc1nc(-c2ccc(Cl)cc2)c(-c2ccncc2)s1", "recorded-measurement": 6.74}
{"smiles": "COc1ccc(-c2nc(NC(=O)c3cccnc3)sc2-c2ccnc(NC(=O)c3cccnc3)c2)cc1", "recorded-measurement": 7.59}
